# key: entry, value: viability, T/C
Test system: K12877-001-R-J1-PDC complex spheroid viability;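 also: tumour cells co-cultured with HUVEC and mesenchymal stem cells in spheroids; spheroids exposed to agents for one week before readout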
Test: Anticancer human tumor K12877-001-R-J1-PDC patient-derived lung adenocarcinoma cell line growth inhibition [RAS]
Conditions: second compound 0.000949 µM; first compound 3.16 µM; active compounds read low
property.label: viability, T/C (%)

>>> observed_result("Cc1nc(N2CCC3(CC2)COC(C)C3N)c(CO)nc1Sc1ccnc(N)c1Cl (configuration not stated) + CCn1c(-c2cccnc2C(C)OC)c2c3cc(ccc31)N1CCOC(CC(NC(=O)C(C(C)C)N(C)C(=O)C3(F)CCN(C(=O)C#CC(C)(C)N(C)C)CC3)C(=O)N3CCCC(N3)C(=O)OCC(C)(C)C2)C1")
52.8
>>> observed_result("CC(=O)OC12COC1CC(O)C1(C)C(=O)C(O)C3=C(C)C(OC(=O)C(O)C(NC(=O)OC(C)(C)C)c4ccccc4)CC(O)(C(OC(=O)c4ccccc4)C21)C3(C)C (configuration not stated) + CCn1c(-c2cc(N3CCN(C)CC3)cnc2C(C)OC)c2c3cc(ccc31)-c1csc(n1)CC(NC(=O)C1CC1C)C(=O)N1CCCC(N1)C(=O)OCC(C)(C)C2")
7.53
